Target Or System: Oxysterols receptor LXR-beta (Homo sapiens, UniProt P55055)
Sequence (P55055 whole entry): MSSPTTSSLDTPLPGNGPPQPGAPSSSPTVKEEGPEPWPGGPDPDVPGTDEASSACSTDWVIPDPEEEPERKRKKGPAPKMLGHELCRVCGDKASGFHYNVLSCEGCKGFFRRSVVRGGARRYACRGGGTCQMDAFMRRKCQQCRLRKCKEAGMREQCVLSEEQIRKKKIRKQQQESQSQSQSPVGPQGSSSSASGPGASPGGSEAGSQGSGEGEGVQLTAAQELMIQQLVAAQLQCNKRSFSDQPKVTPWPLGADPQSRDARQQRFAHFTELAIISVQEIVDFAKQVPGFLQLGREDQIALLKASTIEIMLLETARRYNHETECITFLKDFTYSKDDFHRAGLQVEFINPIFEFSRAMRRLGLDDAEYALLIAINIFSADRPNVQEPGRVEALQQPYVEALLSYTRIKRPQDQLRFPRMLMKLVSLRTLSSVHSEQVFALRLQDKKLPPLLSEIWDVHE
Measured Parameter: IC50 (nM)
Give just the number in nM; leave the unit off.

QUERY: // map O=C(O)Cc1cccc(OCCCN(Cc2cccc(C(F)(F)F)c2Cl)CC(c2ccccc2)c2ccccc2)c1 to recorded IC50 (system: Oxysterols receptor LXR-beta (Homo sapiens, UniProt P55055))
RESULT: 30

====

# Lookup of reported pIC50 keyed by entry
Target Or System: Oxysterols receptor LXR-alpha (Homo sapiens)
Sequence (Q13133 whole entry): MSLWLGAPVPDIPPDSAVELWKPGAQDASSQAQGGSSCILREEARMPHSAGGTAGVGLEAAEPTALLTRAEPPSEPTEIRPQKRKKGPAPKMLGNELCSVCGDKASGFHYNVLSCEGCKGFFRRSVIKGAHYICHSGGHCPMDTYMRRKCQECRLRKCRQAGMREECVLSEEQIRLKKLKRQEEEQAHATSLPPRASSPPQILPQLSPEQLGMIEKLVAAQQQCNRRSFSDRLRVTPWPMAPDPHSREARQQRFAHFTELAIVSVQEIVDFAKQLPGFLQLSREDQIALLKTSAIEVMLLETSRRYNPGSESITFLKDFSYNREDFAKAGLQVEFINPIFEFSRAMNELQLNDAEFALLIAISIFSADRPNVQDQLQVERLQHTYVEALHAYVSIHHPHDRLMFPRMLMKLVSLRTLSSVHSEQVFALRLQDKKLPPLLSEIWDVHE
Please note pIC50 is a logarithmic value: minus log10 of concentration in mol/L. Answer with that number alone.

> print(dat)
                               entry.smiles  measured.parameter  value.reported
1  CCCCN(Cc1cc(Cl)c(O)c(Cl)c1)c1ccc(C(O)(C(F)(F)F)C(F)(F)F)cc1               pIC50            6.74
2  CCCCN(Cc1ccc(O)c(Cl)c1)c1ccc(C(O)(C(F)(F)F)C(F)(F)F)cc1               pIC50            6.25
3  CCCCN(Cc1cc(Cl)c(OC)c(Cl)c1)c1ccc(C(O)(C(F)(F)F)C(F)(F)F)cc1               pIC50            6.77
4  O=C(O)Cc1cccc(OCCCN(Cc2cccc(C(F)(F)F)c2Cl)CC(c2ccccc2)c2ccccc2)c1               pIC50            6.63
5  CCCCN(Cc1cc(OC(F)(F)F)ccc1O)c1ccc(C(O)(C(F)(F)F)C(F)(F)F)cc1               pIC50            6.72

QUERY: Name the recorded pIC50 for CCCCN(Cc1cc(Cl)cc(Cl)c1)c1ccc(C(O)(C(F)(F)F)C(F)(F)F)cc1 .
RESULT: 6.71

QUERY: Name the recorded pIC50 for OC(c1ccc(N(Cc2ccccc2)Cc2ccccc2)cc1)(C(F)(F)F)C(F)(F)F .
RESULT: 6.50

QUERY: Name the recorded pIC50 for CCCCN(Cc1cc(Cl)ccc1O)c1ccc(C(O)(C(F)(F)F)C(F)(F)F)cc1 .
RESULT: 6.66

QUERY: Name the recorded pIC50 for CCCCN(Cc1ccncc1)c1ccc(C(O)(C(F)(F)F)C(F)(F)F)cc1 .
RESULT: 7.05
